target: GST-Atrophin-1 Interacting Protein PDZ domain 3 (Rattus norvegicus (Rat)), O88382; assay: G' assay; further: key of the grades not given here
Sequence (O88382 774-865, tags or fused parts left off): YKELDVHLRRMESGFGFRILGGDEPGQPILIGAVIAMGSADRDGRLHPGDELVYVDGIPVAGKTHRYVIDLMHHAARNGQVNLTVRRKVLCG
Listed below: Classification values for each entry.
experimental endpoint: Classification (A450 class)

[
  {
    "binder": "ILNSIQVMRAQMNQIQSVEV (modifications not checked) [ephrin B2]",
    "readout unit": "A450 class",
    "observed": 1
  },
  {
    "binder": "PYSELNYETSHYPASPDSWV (modifications not checked) [catenin - delta 2]",
    "readout unit": "A450 class",
    "observed": 1
  },
  {
    "binder": "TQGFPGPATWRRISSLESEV (modifications not checked) [NMDA Glutamate Receptor 2C (cysteine-free)]",
    "readout unit": "A450 class",
    "observed": 2
  },
  {
    "binder": "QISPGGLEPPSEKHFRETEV (modifications not checked) [TAX]",
    "readout unit": "A450 class",
    "observed": 1
  },
  {
    "binder": "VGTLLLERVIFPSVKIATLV (modifications not checked) [AdenoE4 typ9]",
    "readout unit": "A450 class",
    "observed": 4
  },
  {
    "binder": "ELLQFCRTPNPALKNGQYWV (modifications not checked) [CSPG4 (chondroitin sulfae proteoglycan 4, melanoma-associated)]",
    "readout unit": "A450 class",
    "observed": 2
  }
]

# credit: patent US20050282743A1
